Numbers sourced from patent US20240270698A2.

Kindly state IC50 for each of the entries shown.
Molecular target: human recombinant LRRK2 protein (Homo sapiens)
Sequence (Q5S007 whole entry): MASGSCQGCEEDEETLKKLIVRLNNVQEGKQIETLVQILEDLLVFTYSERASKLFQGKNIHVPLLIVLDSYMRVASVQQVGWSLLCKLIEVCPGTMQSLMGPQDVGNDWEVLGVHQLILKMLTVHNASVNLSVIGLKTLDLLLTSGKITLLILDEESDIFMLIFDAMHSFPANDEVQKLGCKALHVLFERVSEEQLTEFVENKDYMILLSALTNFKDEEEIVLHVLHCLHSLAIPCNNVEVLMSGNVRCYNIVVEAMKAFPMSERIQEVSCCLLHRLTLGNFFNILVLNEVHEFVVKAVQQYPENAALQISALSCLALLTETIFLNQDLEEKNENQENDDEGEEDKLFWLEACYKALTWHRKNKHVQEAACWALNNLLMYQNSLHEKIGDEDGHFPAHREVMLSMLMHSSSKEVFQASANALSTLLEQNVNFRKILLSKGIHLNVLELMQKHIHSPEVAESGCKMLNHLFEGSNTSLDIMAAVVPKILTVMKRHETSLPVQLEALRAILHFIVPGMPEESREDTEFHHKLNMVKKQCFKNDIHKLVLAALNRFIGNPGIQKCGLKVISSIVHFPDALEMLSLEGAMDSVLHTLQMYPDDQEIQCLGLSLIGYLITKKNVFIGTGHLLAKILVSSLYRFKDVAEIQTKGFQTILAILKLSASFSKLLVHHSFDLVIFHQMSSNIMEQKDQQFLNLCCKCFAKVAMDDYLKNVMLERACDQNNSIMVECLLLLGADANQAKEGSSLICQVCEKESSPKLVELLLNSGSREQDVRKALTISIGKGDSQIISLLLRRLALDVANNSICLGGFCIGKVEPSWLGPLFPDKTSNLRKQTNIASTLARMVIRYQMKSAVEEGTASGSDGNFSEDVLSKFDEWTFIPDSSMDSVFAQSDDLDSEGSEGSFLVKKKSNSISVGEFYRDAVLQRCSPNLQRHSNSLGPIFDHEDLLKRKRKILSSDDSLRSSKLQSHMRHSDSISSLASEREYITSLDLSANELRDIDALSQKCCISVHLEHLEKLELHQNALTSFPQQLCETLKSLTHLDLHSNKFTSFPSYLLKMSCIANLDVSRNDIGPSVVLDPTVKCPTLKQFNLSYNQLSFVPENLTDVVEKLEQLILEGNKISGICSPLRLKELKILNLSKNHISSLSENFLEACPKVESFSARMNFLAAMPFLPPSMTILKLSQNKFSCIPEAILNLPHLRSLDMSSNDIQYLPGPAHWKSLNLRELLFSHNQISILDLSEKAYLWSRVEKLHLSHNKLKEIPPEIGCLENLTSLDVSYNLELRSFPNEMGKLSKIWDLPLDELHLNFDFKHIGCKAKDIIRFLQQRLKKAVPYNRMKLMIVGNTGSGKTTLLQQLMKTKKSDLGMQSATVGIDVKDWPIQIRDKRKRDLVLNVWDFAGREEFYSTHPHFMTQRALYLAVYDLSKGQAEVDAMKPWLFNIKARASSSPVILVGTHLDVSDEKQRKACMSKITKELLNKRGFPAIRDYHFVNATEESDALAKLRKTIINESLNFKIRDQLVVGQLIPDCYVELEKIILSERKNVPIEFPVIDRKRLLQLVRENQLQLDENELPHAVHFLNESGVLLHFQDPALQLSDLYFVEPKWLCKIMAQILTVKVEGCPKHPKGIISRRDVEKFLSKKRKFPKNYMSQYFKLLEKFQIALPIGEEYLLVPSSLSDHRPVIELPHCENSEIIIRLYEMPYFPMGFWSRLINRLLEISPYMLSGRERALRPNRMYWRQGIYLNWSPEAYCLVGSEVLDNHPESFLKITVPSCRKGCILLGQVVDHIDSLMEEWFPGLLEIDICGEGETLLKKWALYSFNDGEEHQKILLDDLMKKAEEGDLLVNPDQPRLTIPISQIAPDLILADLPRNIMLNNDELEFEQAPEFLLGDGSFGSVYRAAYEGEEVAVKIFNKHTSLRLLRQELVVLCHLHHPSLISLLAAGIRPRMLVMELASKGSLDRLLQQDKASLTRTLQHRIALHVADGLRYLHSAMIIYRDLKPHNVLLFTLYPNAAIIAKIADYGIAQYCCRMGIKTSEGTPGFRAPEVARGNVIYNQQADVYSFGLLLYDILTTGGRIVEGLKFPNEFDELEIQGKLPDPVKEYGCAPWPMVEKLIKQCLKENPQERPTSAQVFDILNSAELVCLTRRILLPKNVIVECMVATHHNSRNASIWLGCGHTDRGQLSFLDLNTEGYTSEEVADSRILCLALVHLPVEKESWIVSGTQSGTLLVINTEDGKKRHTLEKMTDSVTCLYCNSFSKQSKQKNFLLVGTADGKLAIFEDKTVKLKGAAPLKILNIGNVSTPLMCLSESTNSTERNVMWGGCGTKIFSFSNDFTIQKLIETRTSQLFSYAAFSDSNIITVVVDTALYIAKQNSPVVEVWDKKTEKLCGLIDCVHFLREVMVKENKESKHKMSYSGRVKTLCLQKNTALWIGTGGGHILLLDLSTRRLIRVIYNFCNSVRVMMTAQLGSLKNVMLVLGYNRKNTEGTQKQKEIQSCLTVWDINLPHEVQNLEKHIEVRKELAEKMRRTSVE
Experiment: LRRK2 kinase activity assay (Eurofins, gamma-33P-ATP, filtermat scintillation counting)
Settings: human recombinant LRRK2, 40 minutes at room temperature

molecule	IC50
CC(C)C1NCCc2ccc(Nc3ncc(Cl)c(Nc4ccccc4P(C)(C)=O)n3)cc21 (centres unmarked)	1 to 10 nM
CP(C)(=O)c1ccccc1Nc1nc(NC2CCCCC2)ncc1Cl	> 1000 nM
COc1cc(Cl)cc(-c2n[nH]c3ccc(Nc4ncc(Cl)c(Nc5ccccc5P(C)(C)=O)n4)cc23)c1	10 to 100 nM
CP(C)(=O)c1ccccc1Nc1ncc(Cl)c(Nc2ccccc2P(C)(C)=O)n1	> 1000 nM
CP(C)(=O)c1ccccc1Nc1nc(Nc2cnc3[nH]nc(-c4cccnc4F)c3c2)ncc1Cl	1 to 10 nM

Each molecule below has a reported value. Please supply its IC50.
1. CC1(C)c2cc(Nc3ncc(Cl)c(Nc4ccccc4P(C)(C)=O)n3)ccc2CCN1C(=O)C(F)(F)F
2. CP(C)(=O)c1ccccc1Nc1nc(NCc2ccc(F)cc2)ncc1Cl
3. Cn1cc(-c2n[nH]c3ccc(Nc4ncc(Cl)c(Nc5ccccc5P(C)(C)=O)n4)cc23)cn1

1: 1 to 10 nM; 2: > 1000 nM; 3: 1 to 10 nM
